Values from the nanobody polyreactivity screen of Harvey et al. (2022)

Experiment: yeast display, Sf9 membrane polyspecificity reagent, FACS + sequencing; frameworks hold sequencing errors
metric: polyreactivity (PSR sort gate)

For orientation, consider the following solved cases.
# entry.sequence, polyreactivity (PSR sort gate)
measured = [
    ("QVQLVESGGGLVQAGGSLRLSCAASGRIFPFYVMGWYRQAPGKERELVATINWSGGSTYYADSVKGRFTISRDNAKNTVYLQMNSLKPEDSAVYYCNAAPSEDYDYWGQGTQVTVSS", "low polyreactivity"),
    ("QVQLVESGGGLVQAGGSLRLSCAASGLTFYYNAMGWYRQAPGKERELVAAISRSGGSTYYADSVKGRFTISRDNAKNTVYLQMNSLKPEDTAVYYCAVGYVYTRKGRVQPVKYDYWGQGTQVTVSS", "high polyreactivity"),
    ("QVQLVESGGGLVQAGGSLRLSCASSGRTFRPYAKGWYRPAPGKDRELVAAITGGTRTYYADSVKGRFTISRDNAKNTVYLQMNSLKPEDTAGYYCAKGDFFSKHDYWGQGTQVTVSS", "low polyreactivity"),
    ("QVQLVESGGGLVQAGGSLRLSGAASGSTFRGYAMGWYRQAPGKERELFAAMTYISDSTYYADSVKGRFTISRDNAKNTVYLQMNSLKPEDTAVYYCNAYYDGDWRYTSQETGDHWGQGTQVTVSS", "low polyreactivity"),
    ("QGQLVESGGGLVQAGGSLRLTCAASGSNFVQNAMGWYRPAPGKERELVAVSNSGDSTNYADSVKGRFTISRDNAKNTVYLHMNSLKPEDNAVYYCAVDDVSYYYLRAYNYELSWYGSGLDYWGQGTQVTVSS", "low polyreactivity"),
    ("HVQLLESGGGLLQAGGSLRLSCMASGSILRDRMSWYLQAPGKEHELVATIYDGGITYYADSMKGRFTISRDNAKNTVYLQMNSLRPEDTAVYYCGASFEGYRYHVYCGQGTQVTVSS", "low polyreactivity"),
    ("QFQLVESGGGLVQAGGSLRLSCAASGSTFDINDMGWYRQAPGKERELVAAITTSGASTYYADSVKGRFTISRDNAKNTVYLQMNSLKPEETAVSYCAADCLSYVWYVWYDYWGQGTKVTVSS", "low polyreactivity"),
    ("QVQLVESGGGLVQAGGSLRLSCAASGRTFNGYAMGWYRQAPGKERELVAGISWRGTSTYYADSVKGRFTISRDNAKNTVYLQMNSLKPEDTAVYYCAADVWRVQHRGYNYWGQGTQVTVSS", "high polyreactivity"),
]

INPUT: Recorded polyreactivity (PSR sort gate) for QVQLVESGGGLVQAGGSLRLSCAASGSTFHWYVMGWYRQAPGKERELVAAITWSGGSTYYADSVKGRLTISRDNAKNTVYLQMNSLKPEDTAVYYCNAVFWIWNAGYDYWGQGTQVTVSS , please?
OUTPUT: low polyreactivity

INPUT: Recorded polyreactivity (PSR sort gate) for QVQLLESGGGLVQAGGSLRLSCAASGRIFVKYAMGWYRQAPGKERELVAAISKSGGSTYYADSVKGRFTISRDNAKNTVYLQMNSLKPEDTAVYYCAPRSRDQYSGSYRLDYWGQGTQVTVSS , please?
OUTPUT: low polyreactivity

INPUT: Recorded polyreactivity (PSR sort gate) for QVQLVESGGGLVQAGGSLRLSSAASGRIFSDYDMGWYRQAHGKERELVAAITSGGITNYADSVKGRFTISRDNAKNTVYLQMNSLKPEDTAVYYCATGRRRYYFREYYYWGQGTQVTVSS , please?
OUTPUT: high polyreactivity
